assay: qHTS of IL-2 Activators; conditions: IL-2 activation reporter assay, cell-based qHTS; active compounds read high; in transgenic mouse T cells; stimulated with anti-CD3/CD4/CD28 beads; note: 0% is about no effect
The campaign covered roughly 360,000 compounds. About 240 (0.067%) were called active. This excerpt belongs to a sample that is enriched for actives.
QUANTITY NAME: activation (%)
Kindly provide the numeric value in % only, without the unit symbol.

The examples below pair each entry with its known result.
# COMPOUND, activation, %
records = [
    ("CCN(CC)S(=O)(=O)c1ccc(CNC(=O)CN2C(=O)NC3(CCc4ccccc43)C2=O)cc1 (stereo unspecified)", -3.43),
    ("C=CCOC(=O)N1CCC2CC1c1cc(-c3ccc(OC)cc3)ccc12 (stereo unspecified)", -0.638),
    ("Cc1cc(C)cc(N(CC(=O)N2CC=C(c3ccccc3)CC2)S(=O)(=O)c2c(C)noc2C)c1", -2),
]

Continue with the compound presented below.
// CN(c1ccccc1)c1nc(N)c([N+](=O)[O-])c(NCc2ccco2)n1 : activation value = 2.01

These measurements were taken from PubChem BioAssay AID652025.
